# maps each entry to its MFI
- TARGET SYSTEM: T1, human CD3 on human T cells (Jurkat) (human, UniProt P07766 23-207; P04234 22-171; P09693 23-182)
- T1 construct: whole, on cells; also called huCD3+; cell surface CD3 on human (Jurkat) T cells
- T1 sequence (P07766 23-207, chain 1 of 3): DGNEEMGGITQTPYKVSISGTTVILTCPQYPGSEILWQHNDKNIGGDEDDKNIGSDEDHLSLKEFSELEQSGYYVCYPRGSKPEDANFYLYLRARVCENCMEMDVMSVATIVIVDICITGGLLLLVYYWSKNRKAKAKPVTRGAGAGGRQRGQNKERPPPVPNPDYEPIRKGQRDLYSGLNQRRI
- T1 sequence (P04234 22-171, chain 2 of 3): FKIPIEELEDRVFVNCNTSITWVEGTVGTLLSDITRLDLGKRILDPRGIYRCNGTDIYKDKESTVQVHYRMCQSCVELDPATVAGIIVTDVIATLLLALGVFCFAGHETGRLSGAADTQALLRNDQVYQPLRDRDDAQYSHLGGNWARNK
- T1 sequence (P09693 23-182, chain 3 of 3): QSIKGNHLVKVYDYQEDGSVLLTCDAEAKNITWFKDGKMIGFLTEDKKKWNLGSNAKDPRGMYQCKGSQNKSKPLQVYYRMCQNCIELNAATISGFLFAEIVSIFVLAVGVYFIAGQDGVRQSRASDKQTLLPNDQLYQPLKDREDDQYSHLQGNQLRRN
- MEASUREMENT DESCRIPTION: flow cytometry, Jurkat cells, 0 nM antibody (background)

HuL9H2 (Fab, V domains shown, Humanized Fab expressed in Expi293F; also called VL9 + VH2 humanized Fab) VH: EVQLVESGGGLVQPGGSLKLSCAASGFTFNTYAMNWVRQASGKGLEWVARIRSKYNNYATYYADSVKDRFTISRDDSKNTLYLQMNSLKTEDTAVYYCVRHGNFGNSYVSWFAYWGQGTLVTVSS VL: QAVVTQEPSLTVSPGGTVTLTCGSSTGAVTTSNYANWVQQKPGQAFRGLIGGTNKRAPGVPDRFSGSLLGGKAALTISGAQPEDEAEYYCALWYSNLWVFGGGTKLTVL | 559

Quickly give me recorded MFI for HuL6H2 (Fab, V domains shown, Humanized Fab expressed in Expi293F; also called VL6 + VH2 humanized Fab) VH: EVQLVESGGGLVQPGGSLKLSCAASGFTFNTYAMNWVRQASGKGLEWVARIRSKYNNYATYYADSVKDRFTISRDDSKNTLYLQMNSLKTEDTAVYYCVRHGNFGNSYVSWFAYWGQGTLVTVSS VL: QAVVTQEPSLTVSPGGTVTLTCRSSTGAVTTSNYANWFQQKPDHLPRTLIYGTNKRAPGTPARFSGSLLGDKAALTISGAQPEDEAEYYCALWYSNLWVFGGGTKLTVL
559

Quickly give me recorded MFI for HuL8H2 (Fab, V domains shown, Humanized Fab expressed in Expi293F; also called VL8 + VH2 humanized Fab) VH: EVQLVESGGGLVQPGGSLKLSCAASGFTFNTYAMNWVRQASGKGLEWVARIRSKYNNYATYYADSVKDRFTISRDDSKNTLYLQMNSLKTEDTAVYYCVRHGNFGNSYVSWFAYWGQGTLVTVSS VL: QAVVTQEPSLTVSPGGTVTLTCGSSTGAVTTSNYANWVQQKPDHLFRGLIGGTNKRAPGTPARFSGSLLGGKAALTISGAQPEDEAEYYCALWYSNLWVFGGGTKLTVL
559
